- Test system: OVCAR-5 ovarian
- measurement_description: NCI tumour cell line growth inhibition, 48 h
test_readout: TGI

Query: Recall and state the measured TGI for O=C(Nc1ncc([N+](=O)[O-])s1)c1ccccc1O .
Reply: > 100 µM

Query: Indicate the recorded TGI value for this molecule: OCc1ccc(N(Cc2ccc(F)cc2)CC2CCC2)cc1Cl
Reply: 4.25 µM

Query: Please list TGI recorded for the molecule COC1=CC(=O)C2C(C1=O)C(c1ccc(Cl)cc1)[C@@H]2C (stereo not given in full)
Reply: > 100 µM

Query: Give the reported TGI for this molecule. CO/N=C(\C)c1cccc(Nc2nc3ccccc3c3occc23)c1
Reply: 27.6 µM

Query: Please report TGI for the following molecule: CC(=O)O[C@H]1C(=O)[C@@]2(C)C(C(OC(=O)c3ccccc3)[C@]3(O)CC(OC(=O)C(O)C(NC(=O)c4ccccc4)c4cccc(Cl)c4)C(C)=C1C3(C)C)[C@]1(OC(C)=O)CO[C@@H]1C[C@@H]2O (stereo not given in full)
Reply: > 10 µM

Query: Supply reported TGI belonging to this molecule: Cc1c2cc[n+](C)cc2c(C)c2c1oc1ccccc12
Reply: 64 µM

Query: Indicate the recorded TGI value for this molecule: COC(=O)C1=C(\O)C[C@@]2(C)CC[C@@H](C(=O)OC)C2C/C=C\1C(=O)OC (stereo not given in full)
Reply: > 100 µM

Query: Tell me measured TGI for Cc1ccc(S(=O)(=O)N/N=C2\CC(C)OC3=C2CCCCCC3)cc1 (stereo not given) please.
Reply: 37.8 µM

Query: Return reported TGI. Input molecule: CC1OC(OCC2OC(Oc3ccc(C4CC(=O)c5c(O)cc(O)cc5O4)cc3O)C(O)C(O)C2O)C(O)C(O)C1O (stereo not given)
Reply: > 100 µM

Query: Give the reported value of TGI for this record: COc1cc2c(cc1O)C1CC(CC3CCCCN31)OC(=O)/C=C\c1ccc(O)c-2c1 (stereo not given)
Reply: > 100 µM

Query: Respond only with TGI recorded for Cc1cc2c(cc1Cl)N1C(=O)NS(=O)(=O)N=C1NS2(=O)=O
Reply: > 100 µM

Query: Check the records and state TGI for CN(C)c1ccc(/C=c2/c3ccccc3n3c2cc(NC(=O)NCCC[N+](C)(C)C)[n+]3C)cc1
Reply: > 100 µM

Query: Please indicate TGI recorded for C#Cc1ccc(-n2c(/C=C/c3ccc4ccccc4c3)nc3ncccc3c2=O)cc1
Reply: > 100 µM

Query: Consider the molecule N=C(N)SCc1cccc([N+](=O)[O-])c1 . State its measured TGI.
Reply: > 100 µM

Query: Tell me measured TGI for COC1=CC2CCN3Cc4cc5c(cc4C(C1O)C23)OCC5 (stereo not given) please.
Reply: 22.8 µM

Query: Tell me TGI reported for CCN1C(=O)N(CC)C2C1NN=c1s/c(=C\c3ccc(OC)cc3)c(=O)n12 (stereo not given)
Reply: > 100 µM

Query: Give the measured TGI for c1ccc2c3nnc(c2c1)SCCCSc1nnc(c2ccccc12)SCCCS3
Reply: > 100 µM

Query: Tell me TGI reported for Cc1ccc(S(=O)(=O)Oc2nc3nc4ccccc4nc3nc2OS(=O)(=O)c2ccc(C)cc2)cc1
Reply: > 100 µM

Query: Fill in TGI for record CC(NC(=O)OC(C)(C)C)C(=O)NC(Cc1ccccc1)C(=O)NCC(=O)Oc1c(Cl)c(Cl)c(Cl)c(Cl)c1Cl (stereo not given)
Reply: 42.8 µM

Query: Output TGI of NC(=O)c1ncn(Cc2ccccc2)c1CNC(N)=S
Reply: > 100 µM

Every entry's value here was drawn from PubChem BioAssay (NCI).
